# run-description: Pharmacokinetic analysis of compounds in mouse plasma after oral gavage or intravenous injection
# Type: in vivo, Male C57BL/6J mice
# assay-context: mouse plasma, table dose 5 mg/kg; IV arm was 1 mg/kg
Entries and their measured clearance follow.

[
  {
    "compound": "Cc1cc(-n2nc3c(c2-n2ccn(-c4ccc(C(=O)N(C)C5CC5)c(F)c4F)c2=O)[C@H](C)N(C(=O)c2cc4cc([C@H]5CCOC(C)(C)C5)ccc4n2[C@@]2(c4nc(=O)o[nH]4)C[C@@H]2C)CC3)cc(C)c1F [Compound 5]",
    "clearance [mL/min/kg]": 2.38
  },
  {
    "compound": "Cc1cc(-n2nc3c(c2-n2ccn(-c4ccc(C(=O)N(C)C5CC5)c(Cl)c4F)c2=O)[C@H](C)N(C(=O)c2cc4cc([C@H]5CCOC(C)(C)C5)ccc4n2[C@@]2(c4nc(=O)o[nH]4)C[C@@H]2C)CC3)cc(C)c1F [Compound 7]",
    "clearance [mL/min/kg]": 1.94
  },
  {
    "compound": "Cc1cc(-n2nc3c(c2-n2ccn(-c4ccc(C(=O)N(C)C5CC5)c(Cl)c4)c2=O)[C@H](C)N(C(=O)c2cc4cc([C@H]5CCOC(C)(C)C5)ccc4n2[C@@]2(c4nc(=O)o[nH]4)C[C@@H]2C)CC3)cc(C)c1F [Compound 11]",
    "clearance [mL/min/kg]": 2.02
  }
]
